biological target: EGFR-L858R/C797S (H1975-clone #8 cells) (Homo sapiens, UniProt P00533, C797S/L858R); construct: expressed in transfected cells; host or cells: H1975 (endogenous EGFR knocked out, clone #8); test: Cell degradation of EGFR, HTRF assay, H1975-clone#8 (L858R/C797S) cells; assay type: cell-based; conditions: 16 h treatment, EGFR degradation
Sequence (P00533 25-1210 C797S/L858R): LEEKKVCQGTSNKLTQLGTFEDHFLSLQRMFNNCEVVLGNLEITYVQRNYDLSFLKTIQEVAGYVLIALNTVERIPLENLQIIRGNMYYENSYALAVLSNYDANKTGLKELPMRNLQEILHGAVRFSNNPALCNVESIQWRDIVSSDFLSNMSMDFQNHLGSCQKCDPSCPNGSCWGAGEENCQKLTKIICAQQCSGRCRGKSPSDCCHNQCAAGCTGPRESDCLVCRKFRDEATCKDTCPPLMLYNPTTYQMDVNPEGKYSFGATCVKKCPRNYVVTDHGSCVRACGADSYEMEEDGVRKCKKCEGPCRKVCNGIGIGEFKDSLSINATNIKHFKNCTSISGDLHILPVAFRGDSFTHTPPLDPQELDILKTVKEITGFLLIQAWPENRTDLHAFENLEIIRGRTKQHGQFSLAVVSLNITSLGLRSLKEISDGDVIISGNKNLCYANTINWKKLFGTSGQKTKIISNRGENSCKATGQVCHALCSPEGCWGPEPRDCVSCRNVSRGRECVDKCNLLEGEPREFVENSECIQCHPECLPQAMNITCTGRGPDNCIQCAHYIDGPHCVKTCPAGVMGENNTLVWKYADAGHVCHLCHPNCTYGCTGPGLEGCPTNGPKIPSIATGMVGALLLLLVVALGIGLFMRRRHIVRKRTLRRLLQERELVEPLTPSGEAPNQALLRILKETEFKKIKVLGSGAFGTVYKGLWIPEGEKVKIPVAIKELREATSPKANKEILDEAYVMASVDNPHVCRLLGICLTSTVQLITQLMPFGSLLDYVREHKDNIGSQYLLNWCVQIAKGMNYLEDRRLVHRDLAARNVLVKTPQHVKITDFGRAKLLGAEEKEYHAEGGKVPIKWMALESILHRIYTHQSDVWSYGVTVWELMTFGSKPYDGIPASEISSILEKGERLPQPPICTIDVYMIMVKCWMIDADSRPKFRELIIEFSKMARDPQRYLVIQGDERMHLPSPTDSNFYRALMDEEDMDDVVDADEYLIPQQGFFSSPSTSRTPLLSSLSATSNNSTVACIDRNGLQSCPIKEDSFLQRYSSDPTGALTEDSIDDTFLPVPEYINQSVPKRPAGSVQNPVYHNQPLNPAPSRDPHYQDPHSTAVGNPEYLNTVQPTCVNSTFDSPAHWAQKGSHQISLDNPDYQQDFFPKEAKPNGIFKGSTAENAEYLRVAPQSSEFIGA
What DC50 was measured for each of the following?
Don't forget the unit after the number, please.

Cc1cc2cc(n1)-c1cnn(C)c1OC[C@H]1CCC(C1)CN1/C(=N/C2=O)Nc2ccc(N3CCN([C@@H]4CCN(c5ccc(OC6CCC(=O)NC6=O)cc5F)C[C@@H]4F)CC3)cc21 (stereo partly drawn) [Example 115]
2.84 nM
Cc1cc2cc(n1)-c1cnn(C)c1OC[C@H]1CC[C@H](C1)CN1/C(=N/C2=O)Nc2ccc(N3CCN(C4CCN(c5cc(F)c([C@H]6CCC(=O)NC6=O)c(F)c5)CC4)CC3)cc21 [Example 1]
1.41 nM

Read the next record carefully.
Data request, read-out DC50, for COC[C@H]1CN(c2cc3c(cc2F)N/C2=N\C(=O)c4cc(C)nc(c4)-c4c(C)nn(C)c4OC[C@H]4CC[C@H](C4)CN23)CCN1C1CCN(c2cc(F)c([C@H]3CCC(=O)NC3=O)c(F)c2)CC1 [Example 165]
4.45 nM
